B1: TOR1AIP2 (parent)
chain: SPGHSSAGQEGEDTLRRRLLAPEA

- Variants of: B1
- experiment_summary: protein stability index of a GFP-peptide fusion (GPS, HEK-293T) (PSI 1-6); higher = more stable;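 further: lentivirally expressed fusions sorted by FACS into six bins by GFP to DsRed ratio, PSI derived from sequencing read proportions per bin multiplied by bin number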
- details: c terminus: a fixed tail appended
readout_type: protein stability index
Reply with just the number.

## Task Answer with the recorded protein stability index of SPGHSSAGQEGEDTLRRQLLAPEA [R18Q] only.
## Result 3.89

## Task Recall and state the measured protein stability index for SPGHRSAGQEGEDTLRRRLLAPEA [S5R] .
## Result 4

## Task State its protein stability index: SPGHSSAGQEVEDTLRRRLLAPEA [G11V]
## Result 4.04

## Task Report protein stability index for SPGHSSAGKEGEDTLRRRLLAPEA [Q9K]
## Result 4.02

## Task # return recorded protein stability index for input SPGHSCAGQEGEDTLRRRLLAPEA [S6C]
## Result 3.9

The measurements presented in this section are drawn from the supplement of paper PMC10567573.
